# TEST_SYSTEM: HLA DRB5 01:01 (Homo sapiens, UniProt P01903+Q30154)
# TEST_NAME: Competitive binding assay of overlapping peptides to HLA
# TEST_CONDITIONS: competitive binding to HLA DRB5 01:01, compared with reference H1N1 influenza peptide
PARAMETER_MEASURED: Binding affinity

Reference set, count: 6
{"SUBSTANCE": "Aa 48-62-SEQ ID NO: 2 (VSIWVKSIRICTPMG; listed as Homo sapiens) [PROK2 #5]", "TEST_SYSTEM": "HLA DRB5 01:01 (Homo sapiens, UniProt P01903+Q30154)", "EXPERIMENTAL_RESULT": "+"}
{"SUBSTANCE": "Aa 38-52-SEQ ID NO: 2 (SQCGGGMCCAVSIWV; listed as Homo sapiens) [PROK2 #3]", "TEST_SYSTEM": "HLA DRB5 01:01 (Homo sapiens, UniProt P01903+Q30154)", "EXPERIMENTAL_RESULT": "−"}
{"SUBSTANCE": "Aa 33-47-SEQ ID NO: 2 (ACDKDSQCGGGMCCA; listed as Homo sapiens) [PROK2 #2]", "TEST_SYSTEM": "HLA DRB5 01:01 (Homo sapiens, UniProt P01903+Q30154)", "EXPERIMENTAL_RESULT": "−"}
{"SUBSTANCE": "Aa 121-135-SEQ ID NO: 1 (NSPFFLVFFSSPHTS; listed as Homo sapiens) [FABP7 #28]", "TEST_SYSTEM": "HLA DRB5 01:01 (Homo sapiens, UniProt P01903+Q30154)", "EXPERIMENTAL_RESULT": "+++"}
{"SUBSTANCE": "Aa 47-61-SEQ ID NO: 1 (GDKVVIRTLSTFKNT; listed as Homo sapiens) [FABP7 #10]", "TEST_SYSTEM": "HLA DRB5 01:01 (Homo sapiens, UniProt P01903+Q30154)", "EXPERIMENTAL_RESULT": "+"}
{"SUBSTANCE": "Aa 105-119-SEQ ID NO: 2 (HTCPCLPGLACLRTS; listed as Homo sapiens) [PROK2 #19]", "TEST_SYSTEM": "HLA DRB5 01:01 (Homo sapiens, UniProt P01903+Q30154)", "EXPERIMENTAL_RESULT": "−"}

Qu. Entry Aa 110-124-SEQ ID NO: 2 (LPGLACLRTSFNRFI; listed as Homo sapiens) [PROK2 #20] : reported Binding affinity = ?
Ans. ++

Qu. Entry Aa 78-92-SEQ ID NO: 2 (GNGRQERRKRKRSKR; listed as Homo sapiens) [PROK2 #11] : reported Binding affinity = ?
Ans. −

Qu. Entry Aa 42-56-SEQ ID NO: 1 (IISQEGDKVVIRTLS; listed as Homo sapiens) [FABP7 #9] : reported Binding affinity = ?
Ans. −

Qu. Entry Aa 73-87-SEQ ID NO: 2 (RKNNFGNGRQERRKR; listed as Homo sapiens) [PROK2 #10] : reported Binding affinity = ?
Ans. +

Qu. Entry Aa 22-36-SEQ ID NO: 1 (KALGVGFATRQVGNV; listed as Homo sapiens) [FABP7 #5] : reported Binding affinity = ?
Ans. −

Qu. Entry Aa 126-140-SEQ ID NO: 1 (LVFFSSPHTSHLLPS; listed as Homo sapiens) [FABP7 #29] : reported Binding affinity = ?
Ans. +

Qu. Entry Aa 102-116-SEQ ID NO: 1 (ETNFVREIKDGKMVM; listed as Homo sapiens) [FABP7 #21] : reported Binding affinity = ?
Ans. +

Qu. Entry Aa 100-114-SEQ ID NO: 2 (GRRMHHTCPCLPGLA; listed as Homo sapiens) [PROK2 #18] : reported Binding affinity = ?
Ans. −

Qu. Entry Aa 53-67-SEQ ID NO: 2 (KSIRICTPMGKLGDS; listed as Homo sapiens) [PROK2 #6] : reported Binding affinity = ?
Ans. +++

Qu. Entry Aa 27-41-SEQ ID NO: 1 (GFATRQVGNVTKPTV; listed as Homo sapiens) [FABP7 #6] : reported Binding affinity = ?
Ans. +

Qu. Entry Aa 62-76-SEQ ID NO: 1 (EISFQLGEEFDETTA; listed as Homo sapiens) [FABP7 #13] : reported Binding affinity = ?
Ans. −

Qu. Entry Aa 67-81-SEQ ID NO: 1 (LGEEFDETTADDRNC; listed as Homo sapiens) [FABP7 #14] : reported Binding affinity = ?
Ans. −

Qu. Entry Aa 152-166-SEQ ID NO: 1 (SFFNNTSLARFFNYM; listed as Homo sapiens) [FABP7 #34] : reported Binding affinity = ?
Ans. +

Qu. Entry Aa 43-57-SEQ ID NO: 2 (GMCCAVSIWVKSIRI; listed as Homo sapiens) [PROK2 #4] : reported Binding affinity = ?
Ans. +

Qu. Entry Aa 92-106-SEQ ID NO: 1 (LVHIQKWDGKETNFV; listed as Homo sapiens) [FABP7 #19] : reported Binding affinity = ?
Ans. −

Qu. Entry Aa 141-155-SEQ ID NO: 1 (SSLLLPFFLLPSFFN; listed as Homo sapiens) [FABP7 #32] : reported Binding affinity = ?
Ans. −

Qu. Entry Aa 28-42-SEQ ID NO: 2 (AVITGACDKDSQCGG; listed as Homo sapiens) [PROK2 #1] : reported Binding affinity = ?
Ans. −

Qu. Entry Aa 136-150-SEQ ID NO: 1 (HLLPSSSLLLPFFLL; listed as Homo sapiens) [FABP7 #31] : reported Binding affinity = ?
Ans. −
